target: human cathepsin S (CatS) (Homo sapiens, UniProt P25774); construct: made in house; host or cells: baculovirus system (insect cells); assay: Recombinant human cathepsin S (CatS) fluorogenic substrate inhibition assay; type: biochemical
Sequence (P25774 115-331): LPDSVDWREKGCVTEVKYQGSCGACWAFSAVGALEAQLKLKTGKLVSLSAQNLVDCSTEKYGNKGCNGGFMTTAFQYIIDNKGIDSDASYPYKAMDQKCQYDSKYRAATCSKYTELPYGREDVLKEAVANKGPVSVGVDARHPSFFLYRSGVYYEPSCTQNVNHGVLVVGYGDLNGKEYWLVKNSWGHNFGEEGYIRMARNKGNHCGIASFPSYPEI
EXPERIMENTAL READOUT: pIC50
Lab note: report pIC50 as minus log10 of the concentration in molar units, number only.

Example cases with answers are listed next.
CC(C)CC(=O)NCc1cc(-c2nn(CC(O)CN3CCC(c4ccccc4)CC3)c3c2CN(S(C)(=O)=O)CC3)ccc1C(F)(F)F (stereo not drawn) [Example 288]
8.00
CN(C)C(=O)NCc1cc(-c2nn(CC(O)CN3CCC(n4c(=O)n(C)c5ccc(N(C)C)nc54)CC3)c3c2CN(S(C)(=O)=O)CC3)ccc1C(F)(F)F (stereo not drawn) [Example 147]
6.85

Please find the next compound below.
[ask] Name the recorded pIC50 of the item COc1ccccc1C1CCN(CC(O)Cn2nc(-c3ccc(C(F)(F)F)c(CNC(=O)CC(C)C)c3)c3c2CCN(S(C)(=O)=O)C3)CC1 (stereo not drawn) [Example 259] in your answer.
[reply] 7.70

Reference source for all entries: patent US20080269241A1
